// provenance: PubChem BioAssay (NCATS)

Test: Drug repurposing screens with cells derived from glioblastoma tumor samples (AID 1345199); note: % is set by controls: 0 for no effect and ±100 for the full control effect
Conditions: GBM patient neurospheres viability, ATP luminescence, 48 h; at 46 µM (top of the series); tumour line A
Inconclusive results are not listed.
activity, negative = cell killing values by entry
Answer in %, number only, no unit symbol.

Please review the entries below; each comes with its answer.
[
  {
    "chemical.string": "O=C1NC(=O)C(c2ccccc2)(c2ccccc2)N1",
    "assay.result": -29.6
  },
  {
    "chemical.string": "CC(=O)c1ccc(S(=O)(=O)NC(=O)NC2CCCCC2)cc1",
    "assay.result": -21.5
  },
  {
    "chemical.string": "N#C[C@H]1C[C@H]2C[C@@H]2N1C(=O)[C@@H](N)C12CC3CC(CC(O)(C3)C1)C2",
    "assay.result": -21.1
  },
  {
    "chemical.string": "CCN1CCC[C@H]1CNC(=O)c1cc(S(N)(=O)=O)ccc1OC",
    "assay.result": -29.7
  },
  {
    "chemical.string": "COc1ccccc1N1CCN(CCCNc2cc(=O)n(C)c(=O)n2C)CC1",
    "assay.result": -30.8
  }
]

Problem: Entry under review: CCOC(=O)O[C@]1(C(=O)OCCl)CC[C@@H]2[C@H]3CCC4=CC(=O)C=C[C@]4(C)[C@@H]3[C@@H](O)C[C@@]21C . Reported activity, negative = cell killing?
Result: -8.19

Problem: Entry under review: NC[C@@H]1O[C@@H](O[C@H]2[C@@H](O)[C@H](O[C@@H]3[C@@H](O)[C@@H](N)C[C@H](N)[C@H]3O[C@H]3O[C@H](CN)[C@@H](O)[C@@H](O)[C@H]3N)O[C@H]2CO)[C@H](N)[C@@H](O)[C@@H]1O . Reported activity, negative = cell killing?
Result: -29.1

Problem: Entry under review: O=c1[nH]cnc2c1ncn2[C@H]1CC[C@@H](CO)O1 . Reported activity, negative = cell killing?
Result: -25.7
